// provenance: patent US20250325529A1

- Measurement notes: Tissue distribution in C57BL/6 male mice
- Type: in vivo, C57BL/6 mice
- Condition notes: male, C57BL/6, mouse, pancreas; mice, oral 10 mg/kg, 8 hrs; read-out: Pancreas concentration
Observable: concentration at 8 h (ng/g)
Express it in ng/g; write the number only.

**Query** So what's the measured concentration at 8 h for this one? CC(C)Oc1nc(NC(=O)CSCC(=O)O)c(Cl)cc1Cl [PD152]
**Result** 14

---

- Measurement notes: Tissue distribution in C57BL/6 male mice
- Type: in vivo, C57BL/6 mice
- Condition notes: male, C57BL/6, mouse, skeletal muscle; mice, oral 10 mg/kg, 2.0 hrs; read-out: Skeletal muscle concentration
Observable: concentration at 2 h (ng/g)
Express it in ng/g; write the number only.

**Query** So what's the measured concentration at 2 h for this one? CC(C)Oc1nc(NC(=O)CSCC(=O)O)c(Cl)cc1Cl
**Result** 26.5
